- System: barnyardgrass (Echinochloa crus-galli)
- Test Details: Test A preemergence, visual injury rating
- Format: in vivo
- Condition Set: 125 g ai/ha, 0 to 100 scale (0 no effect, 100 complete control)
Listing of recorded Plant response rating, Barnyardgrass by entry.
Write the value as a bare number.

Look over these answered cases.
Any idea what Plant response rating, Barnyardgrass was measured for N#Cc1cccc(Oc2ncc(Cl)cn2)c1COCC(F)(F)C(F)(F)F [Compound 132] ?
100

Find the recorded Plant response rating, Barnyardgrass belonging to N#CC(CCCC(F)(F)F)c1ccccc1Oc1ncc(Cl)cn1 (centres unmarked) [Compound 144] and report it.
100

Please report the recorded Plant response rating, Barnyardgrass for COc1cccc(Oc2ncc(Cl)cn2)c1C(=O)OCCC(F)(F)F [Compound 112] .
80

Any idea what its Plant response rating, Barnyardgrass is? The compound is O=C(OCCC(F)(F)F)c1c(OCC(F)(F)F)cccc1Oc1ncc(Cl)cn1 [Compound 117]
0

Returns the measured Plant response rating, Barnyardgrass for the input compound. Input: CC(C)Oc1cccc(Oc2ncc(Cl)cn2)c1C(=O)OCCC(F)(F)F [Compound 115]
0

Others:
What does the data say about its Plant response rating, Barnyardgrass? Entry: CCCC(=O)c1c(Oc2ncc(Cl)cn2)cccc1C(F)(F)F [Compound 136]
100

# get_value(readout='Plant response rating, Barnyardgrass', item= N#Cc1cccc(Oc2ncc(Cl)cn2)c1C(=O)CCC(F)(F)F [Compound 142] )
0

Entry N#Cc1cccc(Oc2ncc(Cl)cn2)c1C(=O)CCC(F)(F)C(F)(F)F [Compound 111] has what Plant response rating, Barnyardgrass?
0

---

- Test system: morningglory (Ipomoea coccinea)
- Test Details: Test C postemergence, plant response rating
- Format: in vivo
- Condition Set: 62 g ai/ha, scale 0 to 100 (0 no effect, 100 complete control)
- Description: […]
This listing pairs compounds with measured Morningglory plant response rating.
API note: the answer field is a bare number with no unit suffix.

Example entries and their recorded answers appear below.
Given `CCCCC(=O)c1c(Oc2ncc(Cl)cn2)cccc1C(F)(F)F` , state its recorded Morningglory plant response rating.
65

I am curious: what Morningglory plant response rating value has been reported for `O=C(CCC(F)(F)F)c1c(Br)cccc1Oc1ncc(Cl)cn1` ?
65

What does the record list as Morningglory plant response rating for N#CC(CCCC(F)(F)F)c1ccccc1Oc1ncc(Cl)cn1 (stereo not drawn) ?
50

Reported Morningglory plant response rating, compound `FC(F)(F)CCCCc1c(Cl)cccc1Oc1ncc(Cl)cn1` : ____
20

Others:
Please give the measured Morningglory plant response rating for this compound: `CCCCC(=O)c1c(Br)cccc1Oc1ncc(Cl)cn1`
30

Reported Morningglory plant response rating, compound `CCCC(=O)c1c(Br)cccc1Oc1ncc(Cl)cn1` : ____
20

---

- Tested on: blackgrass (Alopecurus myosuroides)
- Test Details: Test A postemergence, visual injury rating
- Type: in vivo
- Condition Set: 500 g ai/ha, 0 is no effect, 100 is complete control
Here, each record is paired with measured Blackgrass plant response rating (0 to 100 scale) data.
Reply briefly: the number, and no unit.

Example entries begin here.
Field: Blackgrass plant response rating (0 to 100 scale) (blackgrass (Alopecurus myosuroides)). Entry: `O=C(CCCC(F)(F)F)c1c(Oc2ncc(Cl)cn2)cccc1C(F)(F)F`
90

Given the entry `CCCC(=O)c1c(Oc2ncc(Cl)cn2)cccc1C(F)(F)F` , what Blackgrass plant response rating (0 to 100 scale) was observed with blackgrass (Alopecurus myosuroides)?
100

New cases:
Value wanted: Blackgrass plant response rating (0 to 100 scale) (blackgrass (Alopecurus myosuroides)) of entry `O=C(SCC(F)(F)F)c1c(Br)cccc1Oc1ncc(Cl)cn1`
0

Param readout= Blackgrass plant response rating (0 to 100 scale); system= blackgrass (Alopecurus myosuroides); entry= `N#Cc1cccc(Oc2ncc(Cl)cn2)c1C(=O)OCC(F)(F)F` ; returns value.
0

For the record `CN(OCC(F)(F)F)C(=O)c1c(Br)cccc1Oc1ncc(Cl)cn1` , what value of Blackgrass plant response rating (0 to 100 scale) is listed for blackgrass (Alopecurus myosuroides)?
30

---

- Tested on: corn (Zea mays)
- Test Details: Test C postemergence, plant response rating
- Format: in vivo
- Condition Set: 125 g ai/ha, scale 0 to 100 (0 no effect, 100 complete control)
Measured Corn plant response rating by item
Give the value as a plain number.

Some solved entries appear below for comparison.
Hi! What's the reported Corn plant response rating for `FC(F)(F)CCCCc1c(Br)cccc1Oc1ncc(Cl)cn1` on corn (Zea mays)?
30

Field: Corn plant response rating (corn (Zea mays)). Entry: `O=C(OCC(F)(F)F)c1c(Br)cccc1Oc1ncc(Cl)cn1`
20

Continuing:
Identify the measured Corn plant response rating of `N#Cc1cccc(Oc2ncc(Cl)cn2)c1COCCC(F)(F)F` for corn (Zea mays).
25

I'm curious: which Corn plant response rating was measured for N#CC(CCCC(F)(F)F)c1ccccc1Oc1ncc(Cl)cn1 (stereo not shown) tested on corn (Zea mays)?
25

---

- System: corn (Zea mays)
- Test Details: Test C postemergence, plant response rating
- Assay type: in vivo
- Condition Set: 62 g ai/ha, scale 0 to 100 (0 no effect, 100 complete control)
- Source text: […]
Measurement Type: Corn plant response rating
Number, no unit, nothing else.

A selection of reference data follows.
Which measured Corn plant response rating value corresponds to `O=C(CCC(F)(F)F)c1c(Br)cccc1Oc1ncc(Cl)cn1` ?
15

Look up Corn plant response rating for this compound: `O=C(OCC(F)(F)F)c1c(Br)cccc1Oc1ncc(Cl)cn1`
20

Item under review: `CCCCC(=O)c1c(Oc2ncc(Cl)cn2)cccc1C(F)(F)F` . Reported Corn plant response rating?
15

Could you now consider this next compound?
Which Corn plant response rating is listed for `O=C(CCCCC(F)(F)F)c1c(Br)cccc1Oc1ncc(Cl)cn1` ?
25

---

- Test system: galium (catchweed bedstraw, Galium aparine)
- Test Details: Test C postemergence, plant response rating
- Assay type: in vivo
- Condition Set: 16 g ai/ha, scale 0 to 100
- Excerpt: […]
Measurement Type: Plant response rating, Galium
Answer with a number only.

Take a look at these entries with their results.
// map `N#CCCOC(=O)c1c(Br)cccc1Oc1ncc(Cl)cn1` to recorded Plant response rating, Galium (system: galium (catchweed bedstraw, Galium aparine))
0

Value wanted: Plant response rating, Galium (galium (catchweed bedstraw, Galium aparine)) of entry `CCCC(=O)c1c(Br)cccc1Oc1ncc(Cl)cn1`
40

Find Plant response rating, Galium (galium (catchweed bedstraw, Galium aparine)) for the entry `N#Cc1cccc(Oc2ncc(Cl)cn2)c1CCCC(F)(F)F`
80

Now look at this one.
Recall the recorded Plant response rating, Galium for `O=C(OCCC(F)(F)F)c1c(Br)cccc1Oc1ncc(Br)cn1` with galium (catchweed bedstraw, Galium aparine) and state it.
50

---

- System: Italian ryegrass (Lolium multiflorum)
- Test Details: Test A preemergence, visual injury rating
- Assay type: in vivo
- Condition Set: 31 g ai/ha, 0 to 100 scale, 0 no effect, 100 complete control
Measurement Type: Plant response rating, Ryegrass, Italian
Just the number, please, no unit after it.

Use the examples below as a reference point.
What value of Plant response rating, Ryegrass, Italian has been recorded for this entry: `CCOc1cccc(Oc2ncc(Cl)cn2)c1C(=O)OCCC(F)(F)F`
0

# Plant response rating, Ryegrass, Italian lookup, item `O=C(OCCC1CC1)c1c(Br)cccc1Oc1ncc(Cl)cn1`
0

Value lookup for Plant response rating, Ryegrass, Italian; key = N#CC(CCCCC(F)(F)F)c1ccccc1Oc1ncc(Cl)cn1 (stereo not drawn)
10

What measured Plant response rating, Ryegrass, Italian goes with `C=C(C)COC(=O)c1c(Br)cccc1Oc1ncc(Cl)cn1` ?
0

For the molecule `CCON=C(C)c1c(Br)cccc1Oc1ncc(Cl)cn1` , what Plant response rating, Ryegrass, Italian is on record?
0

Continue with the next molecule.
Need Plant response rating, Ryegrass, Italian, item `FC(F)(F)CCCCc1c(Br)cccc1Oc1ncc(Cl)cn1`
10

---

- Test system: ducksalad (Heteranthera limosa)
- Test Details: Test B flooded paddy test, plant response rating
- Assay type: in vivo
- Condition Set: 250 g ai/ha; Flood; scale of 0 to 100 where 0 is no effect and 100 is complete control; 13 to 15 days
Measurement Type: Plant response rating, Ducksalad
Lab note: record just the number, no unit beside it.

# example entries with known answers
Given the entry `FC(F)(F)CCCOCc1c(Br)cccc1Oc1ncc(Cl)cn1` , report its measured Plant response rating, Ducksalad.
100

Please give the measured Plant response rating, Ducksalad for this molecule: `CC(C)=CCOC(=O)c1c(Br)cccc1Oc1ncc(Cl)cn1`
0

For `O=C(OCCC(F)(F)F)c1c(OCC(F)(F)F)cccc1Oc1ncc(Cl)cn1` , what is its reported Plant response rating, Ducksalad?
20

Form field: reported Plant response rating, Ducksalad of CCCC(C#N)c1c(Br)cccc1Oc1ncc(Cl)cn1 (centres unmarked)
0

Continue with the molecule presented below.
Requested field: Plant response rating, Ducksalad. Item: `COc1cccc(Oc2ncc(Cl)cn2)c1C(C)=O`
0
